CONDITION SET: 328.15 K; 20000 kPa; Liquid; Vibrating tube method
PROPERTY MEASURED: mass density (kg/m3)
Your answer is read as kg/m3, so omit the unit and give the number.

MOLECULE	mass density (kg/m3)
CCCC[n+]1ccccc1.F[B-](F)(F)F [1-butylpyridinium tetrafluoroborate]	1202.82
CCCC[n+]1ccccc1.O=S(=O)([O-])C(F)(F)F [1-butylpyridinium trifluoromethanesulfonate]	1304.07
CCC[n+]1ccccc1Oc1ccc(Cl)c[n+]1CCOS(=O)(=O)[O-].F[B-](F)(F)F	1240.87
CCCCCCCC[n+]1cccc(C)c1.F[B-](F)(F)F [N-octyl-3-methylpyridinium tetrafluoroborate]	1086.53

Now look at this entry.
Query :: Return reported mass density. Input molecule: CCCC[n+]1cccc(C)c1.N#C[N-]C#N [1-butyl-3-methylpyridinium dicyanamide]
Result :: 1039.35

* * *

Overview of reported mass density across a group of compounds:
CONDITION SET: 303.15 K; 50000 kPa; Liquid; Vibrating tube method
Please reply with the bare figure in kg/m3 and do not write the unit itself.

COMPOUND	VALUE UNIT	mass density
CCCC[n+]1ccccc1.O=S(=O)([O-])C(F)(F)F [1-butylpyridinium trifluoromethanesulfonate]	kg/m3	1337.67
CCCCCCCC[n+]1cccc(C)c1.F[B-](F)(F)F [N-octyl-3-methylpyridinium tetrafluoroborate]	kg/m3	1115.8
CCCC[n+]1cccc(C)c1.N#C[N-]C#N [1-butyl-3-methylpyridinium dicyanamide]	kg/m3	1064.4

Query :: Let me know recorded mass density for CCC[n+]1ccccc1Oc1ccc(Cl)c[n+]1CCOS(=O)(=O)[O-].F[B-](F)(F)F , thanks.
Result :: 1269.94

Query :: Look up mass density of CCCC[n+]1ccccc1.F[B-](F)(F)F [1-butylpyridinium tetrafluoroborate] and report it.
Result :: 1231.94

* * *

CONDITION SET: 288.15 K; 20000 kPa; Liquid; Vibrating tube method
± gives the expanded uncertainty stated by the source.
PROPERTY MEASURED: mass density
Respond with the figure and its unit, in that order.

Below, 3 compounds whose answers are already recorded.
COMPOUND	mass density
CCCCCCCC[n+]1cccc(C)c1.F[B-](F)(F)F [N-octyl-3-methylpyridinium tetrafluoroborate]	1112.32 ± 1.2 kg/m3
CCCC[n+]1cccc(C)c1.N#C[N-]C#N [1-butyl-3-methylpyridinium dicyanamide]	1063.09 ± 1 kg/m3
CCC[n+]1ccccc1Oc1ccc(Cl)c[n+]1CCOS(=O)(=O)[O-].F[B-](F)(F)F	1269.26 ± 0.66 kg/m3

# evaluate next
Query :: Item CCCC[n+]1ccccc1.F[B-](F)(F)F [1-butylpyridinium tetrafluoroborate] : provide mass density
Result :: 1230.2 ± 0.6 kg/m3

* * *

CONDITION SET: 298.15 K; 100 kPa; Liquid; Vibrating tube method
The reader will find reported mass density values listed item by item below.
Response body: numeric value in kg/m3, unit text excluded.

Study these solved cases before continuing.
COMPOUND	mass density / kg/m3
CCCC[n+]1cccc(C)c1.N#C[N-]C#N [1-butyl-3-methylpyridinium dicyanamide]	1049.45
CCCC[n+]1ccccc1.F[B-](F)(F)F [1-butylpyridinium tetrafluoroborate]	1214.34
CCC[n+]1ccccc1Oc1ccc(Cl)c[n+]1CCOS(=O)(=O)[O-].F[B-](F)(F)F	1253.37

Next compound, please.
Query :: Supply mass density value. Item: CCCCCCCC[n+]1cccc(C)c1.F[B-](F)(F)F [N-octyl-3-methylpyridinium tetrafluoroborate]
Result :: 1096.08
